These data points were gathered from ChEMBL document CHEMBL1201862.

Provide the recorded IC50 for the entries that follow.
target of assay: Rac GTPase-activating protein 1 (Homo sapiens)
Sequence (Q9H0H5 whole entry): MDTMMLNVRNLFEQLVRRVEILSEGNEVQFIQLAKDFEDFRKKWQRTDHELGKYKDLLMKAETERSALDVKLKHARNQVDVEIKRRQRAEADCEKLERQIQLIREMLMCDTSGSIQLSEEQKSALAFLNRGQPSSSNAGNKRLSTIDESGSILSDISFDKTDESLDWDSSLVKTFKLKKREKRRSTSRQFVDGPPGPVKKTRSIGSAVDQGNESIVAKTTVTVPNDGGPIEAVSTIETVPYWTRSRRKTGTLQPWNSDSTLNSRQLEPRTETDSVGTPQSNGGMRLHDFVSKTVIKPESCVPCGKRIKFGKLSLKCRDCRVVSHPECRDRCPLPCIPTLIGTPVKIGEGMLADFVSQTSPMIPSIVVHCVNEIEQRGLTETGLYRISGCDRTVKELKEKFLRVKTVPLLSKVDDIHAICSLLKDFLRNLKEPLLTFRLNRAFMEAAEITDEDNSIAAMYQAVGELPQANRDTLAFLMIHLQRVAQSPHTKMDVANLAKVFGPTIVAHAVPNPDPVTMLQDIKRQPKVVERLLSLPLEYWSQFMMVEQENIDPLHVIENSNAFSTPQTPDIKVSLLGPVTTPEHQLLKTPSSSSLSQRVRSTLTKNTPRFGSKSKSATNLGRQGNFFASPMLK
protocol summary: MgcRacGAP GTPase-activating activity inhibitors, confirmation, biochemical, ADP Hunter fluorescence, primary and confirmatory (AID 624330)
Format: functional
The source made the active and inactive calls. How the calls were made is not given here.

A selection of reference data follows.
# molecule, IC50
rows = [
    ("CN1/C(=C\\C=N\\NC(=O)c2ccc(O)cc2)C(C)(C)c2ccccc21", "60.3 µM (active)"),
    ("O=S(=O)(N=S1CC=CCN1S(=O)(=O)c1ccccc1)c1ccccc1 (stereo unspecified)", "105 µM (active)"),
    ("S=c1[nH]c2ccccc2n2c(=S)[nH]nc12", "56.5 µM (active)"),
    ("COc1cc(/C=C/C(=O)OCC(=O)NCC2CCCCC2)ccc1O", "39.3 µM (active)"),
    ("Oc1ccc(Cc2ccccc2Cl)c(O)c1", "54.8 µM (active)"),
]

Task: Consider the molecule COc1ccc(S(=O)(=O)N2CCC(N3CCN(Cc4ccccc4)CC3)CC2)cc1 . State its measured IC50.
Output: 98.7 µM (active)
